meta.source: ChEMBL document CHEMBL1149962

tested on: Caspase-1 (Homo sapiens)
assay remarks: Inhibition of IL-1 beta converting enzyme
measurement kind: k obs / 1 (M⁻¹ s⁻¹)

[P] C[C@H](NC(=O)OCc1ccccc1)C(=O)N[C@@H](C)C(=O)N[C@@H](CC(=O)O)C(=O)COC(=O)c1c(Cl)cccc1Cl
[Q] COC(=O)N[C@H](C(=O)N[C@@H](CC(=O)O)C(=O)COC(=O)c1c(Cl)cccc1Cl)C(C)C
QUERY: Parameter check: reported k obs / 1 is higher for which label, P or Q ? Answer by stating the label of the chosen item.
RESULT: P
